Values from the supplement of paper PMC4862054

# System: HCC1937
# method_summary: normalised response (% of control), CellTox Green; higher = less cell death (100 = DMSO, 0 = benzethonium chloride kill control)
# applied_conditions: incubation time: 72 h
endpoint_name: normalised response (%)

- CC(=O)O[C@H]1C(=O)[C@@]2(C)[C@H]([C@H](OC(=O)c3ccccc3)[C@]3(O)C[C@H](OC(=O)[C@H](O)[C@@H](NC(=O)c4ccccc4)c4ccccc4)C(C)=C1C3(C)C)[C@]1(OC(C)=O)CO[C@@H]1C[C@@H]2O [Paclitaxel] (100 nM): 84.6
- CN(c1ccccc1CNc1nc(Nc2ccc3c(c2)CC(=O)N3)ncc1C(F)(F)F)S(C)(=O)=O (100 nM): 83.4
- COc1cccc2c1C(=O)c1c(O)c3c(c(O)c1C2=O)C[C@@](O)(C(C)=O)C[C@@H]3O[C@H]1C[C@H](N)[C@H](O)[C@H](C)O1 [Daunorubicin] (10 nM): 106
- CN1CCN(c2ccc3nc(-c4c(N)c5c(F)cccc5[nH]c4=O)[nH]c3c2)CC1 [Dovitinib] (100 nM): 89.1
- CS(=O)(=O)OCCCCOS(C)(=O)=O [Busulfan] (1000 nM): 107
- Nc1nccc(-c2c(-c3ccc(F)cc3)ncn2C2CCCCC2)n1 (100 nM): 78.4
- CCS(=O)(=O)c1cccc(-c2cc(C(=O)NC3CCN(C)CC3)c(C)c3[nH]c4ncc(C)cc4c23)c1 [TAK-901] (1000 nM): 95.2
